Values from PubChem BioAssay (NCI)

Assay text: NCI Yeast Anticancer Drug Screen. Data for the mlh1 rad18 strain (AID 175)
Test settings: S. cerevisiae mlh1 rad18 strain growth inhibition; at 50.0 µM; active compounds read high
Compounds without any hit were thinned out: in the full panel of roughly 79,000, 15% have a hit.
Exercise: for every item that follows, state its recorded growth inhibition.
State just the number; it will be interpreted in %.

Which value of growth inhibition has been reported for Cn1c(=O)c2c(nc(C(c3ccccc3)c3ccccc3)n2C)n(C)c1=O in the records?
-18.6

Which value of growth inhibition has been reported for CC(C)/C(Cl)=N\OC(NC(=O)P(=O)(c1ccccc1)c1ccccc1)(C(F)(F)F)C(F)(F)F in the records?
60.9

Which value of growth inhibition has been reported for CCN(CC)CCN1CC(=O)N2Cc3ccccc3CN2C(=O)C1 in the records?
5.9

Which value of growth inhibition has been reported for CN(C)CCCNc1ccc2ncn3c4ccccc4c(=O)c1c23 in the records?
22.4

Which value of growth inhibition has been reported for O=CC1N=C1c1ccccc1 (centres undefined) in the records?
16.1

Which value of growth inhibition has been reported for Nc1nnc(-c2ccccc2)nn1 in the records?
9.25

Which value of growth inhibition has been reported for c1ccc2c3nnc(c2c1)SCCCSc1nnc(c2ccccc12)SCCCS3 in the records?
-0.95

Which value of growth inhibition has been reported for Cc1ccc(F)c([N+](=O)[O-])c1 in the records?
-6.5

Which value of growth inhibition has been reported for CCN(CC)c1ccc(N=Nc2nc(Cl)c(/C=C3\C(=O)c4ccccc4C3=C(C#N)C#N)s2)c(NC(C)=O)c1 in the records?
-17.6
